# maps each entry to its viability, T/C
# Test system: 485176-168-R4-J1-PDC spheroids with HUVEC/MSC, viability;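 further: spheroids exposed to compounds for seven days before readout; percent viability relative to DMSO vehicle control wells as 100%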
# method.notes: Anticancer human tumor 485176-168-R4-J1-PDC patient-derived pancreatic adenocarcinoma cell line growth inhibition [GQUAD]
# experimental.setup: second compound 0.0316 µM; first compound 0.00999 µM; stronger effect = lower value
Numeric only. Scale: %

// worked examples, viability, T/C included
compound: CCc1c2c(nc3ccc(O)cc13)-c1cc3c(c(=O)n1C2)COC(=O)[C@]3(O)CC + Cc1[nH]c2ccc(F)cc2c1-c1nc2c3cccnc3c3ncccc3c2[nH]1
viability, T/C / %: 35.2
--
compound: Cn1ncnc1[C@H]1c2n[nH]c(=O)c3cc(F)cc(c23)N[C@@H]1c1ccc(F)cc1 + CN(C)c1ccc(Nc2c3ccc(NC(=O)CCN4CCCC4)cc3nc3cc(NC(=O)CCN4CCCC4)ccc23)cc1
viability, T/C / %: 101
--
compound: CCc1c2c(nc3ccc(O)cc13)-c1cc3c(c(=O)n1C2)COC(=O)[C@]3(O)CC + Cc1cnc(CNC(=O)c2c(=O)c3ccc(N4CCCN(C)CC4)nc3n3c2sc2ccccc23)cn1
viability, T/C / %: 36
--
compound: CCc1c2c(nc3ccc(O)cc13)-c1cc3c(c(=O)n1C2)COC(=O)[C@]3(O)CC + CN(C)c1ccc(Nc2c3ccc(NC(=O)CCN4CCCC4)cc3nc3cc(NC(=O)CCN4CCCC4)ccc23)cc1
viability, T/C / %: 38.3
--
compound: CC[C@@]1(O)C(=O)OCc2c1cc1n(c2=O)Cc2cc3c(CN(C)C)c(O)ccc3nc2-1 + CN(C)c1ccc(Nc2c3ccc(NC(=O)CCN4CCCC4)cc3nc3cc(NC(=O)CCN4CCCC4)ccc23)cc1
viability, T/C / %: 83.8
--
compound: Cc1[nH]c2ccccc2c1CCNCc1ccc(/C=C/C(=O)NO)cc1 + Cc1[nH]c2ccc(F)cc2c1-c1nc2c3cccnc3c3ncccc3c2[nH]1
viability, T/C / %: 96.3

Field: viability, T/C (485176-168-R4-J1-PDC spheroids with HUVEC/MSC, viability). Entry: CC[C@@]1(O)C(=O)OCc2c1cc1n(c2=O)Cc2cc3c(CN(C)C)c(O)ccc3nc2-1 + Cc1[nH]c2ccc(F)cc2c1-c1nc2c3cccnc3c3ncccc3c2[nH]1
99.4

Enter reported viability, T/C observed with 485176-168-R4-J1-PDC spheroids with HUVEC/MSC, viability for CC[C@@]1(O)C(=O)OCc2c1cc1n(c2=O)Cc2cc3c(CN(C)C)c(O)ccc3nc2-1 + Cc1cnc(CNC(=O)c2c(=O)c3ccc(N4CCCN(C)CC4)nc3n3c2sc2ccccc23)cn1
87.5

Lab request: please report viability, T/C under test system 485176-168-R4-J1-PDC spheroids with HUVEC/MSC, viability for Cn1ncnc1[C@H]1c2n[nH]c(=O)c3cc(F)cc(c23)N[C@@H]1c1ccc(F)cc1 + Cc1cnc(CNC(=O)c2c(=O)c3ccc(N4CCCN(C)CC4)nc3n3c2sc2ccccc23)cn1;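 further: spheroids exposed to compounds for seven days before readout; percent viability relative to DMSO vehicle control wells as 100%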
91.5

485176-168-R4-J1-PDC spheroids with HUVEC/MSC, viability / viability, T/C / Cc1[nH]c2ccccc2c1CCNCc1ccc(/C=C/C(=O)NO)cc1 + CN(C)c1ccc(Nc2c3ccc(NC(=O)CCN4CCCC4)cc3nc3cc(NC(=O)CCN4CCCC4)ccc23)cc1 : value?;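 further: spheroids exposed to compounds for seven days before readout; percent viability relative to DMSO vehicle control wells as 100%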
82.7

Form field: viability, T/C recorded for Cn1ncnc1[C@H]1c2n[nH]c(=O)c3cc(F)cc(c23)N[C@@H]1c1ccc(F)cc1 + Cc1[nH]c2ccc(F)cc2c1-c1nc2c3cccnc3c3ncccc3c2[nH]1 with 485176-168-R4-J1-PDC spheroids with HUVEC/MSC, viability (enter value)
103

Notebook: pull reported viability, T/C for 485176-168-R4-J1-PDC spheroids with HUVEC/MSC, viability, entry Cc1[nH]c2ccccc2c1CCNCc1ccc(/C=C/C(=O)NO)cc1 + Cc1cnc(CNC(=O)c2c(=O)c3ccc(N4CCCN(C)CC4)nc3n3c2sc2ccccc23)cn1
85.6
